The values you see were collected from the supplement of paper PMC10567573.

# ASSAY_PROCEDURE: protein stability index of a GFP-peptide fusion (GPS, HEK-293T) (PSI 1-6); higher = more stable;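 further: 24-mer peptide tiles fused after GFP, lentivirally expressed, FACS-sorted into six equal bins by GFP/DsRed ratio, decoded by Illumina sequencing, PSI is the read-weighted mean bin number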
# STATED_CONDITIONS: treatment: DMSO; c terminus: a fixed tail appended
OBSERVED_PROPERTY: protein stability index
Answers are plain numbers.

| ITEM_SEQUENCE | protein stability index |
| --- | --- |
| SVPDVPKSMAWCENSICVGFKRDY [VPS39] | 2.91 |

# batch: return protein stability index for each of the 4 sequences below
1. VASGLQFDVETRHVFIGDHSGQVT [WDFY2]
2. VGGQDTGATWRTSGLLEELNAEAG [C18orf25]
3. VGKSLTILGRTFFIYDCDPFTRRY [EFHC1]
4. MYHPRELYPSLGAGYRLGPAQPGA [TBX6]

Marked response:
2.91
4.57
2.47
2.78
